- MEASUREMENT TARGET: sGC α1/β1 heterodimer (Homo sapiens, UniProt Q02108+Q02153)
- Sequence (Q02108 whole entry): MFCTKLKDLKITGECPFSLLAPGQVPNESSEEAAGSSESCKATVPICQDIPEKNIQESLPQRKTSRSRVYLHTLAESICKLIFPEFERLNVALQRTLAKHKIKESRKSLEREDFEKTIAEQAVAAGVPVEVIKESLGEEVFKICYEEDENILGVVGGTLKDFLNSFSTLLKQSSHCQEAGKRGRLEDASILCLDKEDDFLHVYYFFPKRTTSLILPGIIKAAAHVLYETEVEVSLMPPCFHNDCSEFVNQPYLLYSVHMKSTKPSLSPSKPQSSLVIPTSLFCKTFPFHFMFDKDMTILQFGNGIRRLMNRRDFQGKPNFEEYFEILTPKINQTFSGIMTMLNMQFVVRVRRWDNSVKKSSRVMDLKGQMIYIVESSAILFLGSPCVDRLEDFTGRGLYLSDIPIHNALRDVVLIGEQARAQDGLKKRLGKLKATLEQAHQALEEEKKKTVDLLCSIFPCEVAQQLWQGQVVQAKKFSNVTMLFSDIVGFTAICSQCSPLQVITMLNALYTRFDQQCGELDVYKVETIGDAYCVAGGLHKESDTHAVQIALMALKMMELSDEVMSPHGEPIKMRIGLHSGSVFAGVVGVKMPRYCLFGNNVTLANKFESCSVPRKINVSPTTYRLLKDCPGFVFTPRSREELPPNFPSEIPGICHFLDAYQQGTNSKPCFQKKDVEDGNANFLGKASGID
- Sequence (Q02153 whole entry): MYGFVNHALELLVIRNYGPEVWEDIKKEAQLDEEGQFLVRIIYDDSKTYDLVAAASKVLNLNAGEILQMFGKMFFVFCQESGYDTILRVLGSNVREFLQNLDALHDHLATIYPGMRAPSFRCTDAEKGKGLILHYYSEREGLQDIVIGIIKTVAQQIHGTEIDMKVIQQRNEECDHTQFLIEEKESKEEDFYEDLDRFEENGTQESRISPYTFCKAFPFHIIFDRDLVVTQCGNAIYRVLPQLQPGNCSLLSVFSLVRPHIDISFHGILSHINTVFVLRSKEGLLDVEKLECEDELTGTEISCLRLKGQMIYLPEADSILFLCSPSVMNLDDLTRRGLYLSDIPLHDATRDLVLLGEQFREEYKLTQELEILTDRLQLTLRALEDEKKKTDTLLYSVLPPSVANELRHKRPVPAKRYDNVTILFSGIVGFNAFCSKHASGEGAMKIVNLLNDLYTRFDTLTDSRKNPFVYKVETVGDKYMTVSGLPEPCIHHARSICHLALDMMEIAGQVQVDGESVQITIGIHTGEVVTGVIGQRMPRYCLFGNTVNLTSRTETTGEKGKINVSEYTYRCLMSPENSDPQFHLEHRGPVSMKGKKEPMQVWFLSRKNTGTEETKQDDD
- PROCEDURE TEXT: Cell-based sGC functional assay (CASA assay): cGMP generation in CHO-K1/sGC cells, HTRF detection
- EXPERIMENTAL CONDITIONS: inflection point (IP) of cGMP generation in CHO-K1/sGC cells, 4P fit; activity expressed as percentage of Compound A
pEC50: −log10 of the molar value.
Everything with pEC50 lower than 7 is Not fulfilled; everything else, including exactly 7, is Fulfilled.

> print(dat)
                                   compound  category.label
1  CCCCc1nc(-c2nc(N)c3c(n2)NC(=O)C3(c2ccc(F)cc2)C2CCC2)cn2ccnc12 (single isomer, unassigned) [Example 361B]       Fulfilled
2  CCCc1ccc(C2(C)C(=O)Nc3nc(-c4cn5ccnc5c(CCC(F)(F)C(F)(F)F)n4)nc(N)c32)cn1 (stereo not shown) [Example 250B]   Not fulfilled
3  CC(C)(C)CCc1nc(-c2nc(N)c3c(n2)NC(=O)C3(C)c2ccc(Cl)cc2)cn2ccnc12 (stereo not shown) [Example 120A]       Fulfilled
4  CC(C)CCc1nc(-c2nc(N)c3c(n2)NC(=O)C3(C)c2ccc(F)cn2)cn2ccnc12 (stereo not shown) [Example 11B]       Fulfilled

Qu. I'd appreciate it if you could say whether Cc1nc(C2(C3CC3)C(=O)Nc3nc(-c4cn5ccnc5c(CCCC(F)(F)F)n4)nc(N)c32)ccc1F (single isomer, unassigned) [Example 362B] has pEC50 at least equal to 7.
Ans. Not fulfilled

Ref: patent US9796733B2
